Values from patent US6972319B1

- SUBJECT_OF_TEST: PACAP-R2 (Homo sapiens)
- Construct: expressed in transfected cells; host or cells: CHO cells
- Sequence (P32241 31-457, species assumed): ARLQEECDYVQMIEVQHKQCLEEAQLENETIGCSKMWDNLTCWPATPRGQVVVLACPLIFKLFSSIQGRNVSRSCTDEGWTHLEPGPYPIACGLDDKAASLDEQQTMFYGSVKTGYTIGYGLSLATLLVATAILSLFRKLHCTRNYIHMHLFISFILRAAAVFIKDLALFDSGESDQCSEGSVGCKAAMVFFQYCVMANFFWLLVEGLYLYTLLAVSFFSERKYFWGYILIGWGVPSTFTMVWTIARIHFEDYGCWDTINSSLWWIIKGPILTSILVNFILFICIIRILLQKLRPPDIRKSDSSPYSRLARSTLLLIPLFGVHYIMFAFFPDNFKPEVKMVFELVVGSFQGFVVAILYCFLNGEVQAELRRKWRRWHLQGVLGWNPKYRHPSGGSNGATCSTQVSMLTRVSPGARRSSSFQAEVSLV
- ASSAY_PROTOCOL: Cyclic AMP SPA on CHO cells transfected with PACAP-R2
- Assay type: cell-based
- MEASUREMENT_PARAMETERS: cAMP SPA, concentration at which 50% of maximum PACAP27 activity is achieved, NA = no detectable activities, read-out: R2 EC50
No end group written: not given here.
Listed below: pEC50 values for each entry.
pEC50 here: minus log base 10 of the concentration, concentration in moles per litre.

Check out these entries, answers already filled in.
| CONSTRUCT_SEQUENCE | pEC50 |
| --- | --- |
| HSDAVFTDNYTRLRKQMAVKKYLNSILK [Peptide R3P43] | 9.10 |
| HSDAVFTDNYTRLRKQVAAKKYLQSILNK [Peptide R3P94] | 8.05 |

get_value(item= HSDAVFTDNYTRLRKQMASKKYLNSIKNRI [rR3P178] , readout=pEC50) returns 7.10

get_value(item= HSDAVFTDNYTRLRKQMARKKYLNSIRNRI [rR3P192] , readout=pEC50) returns 7.40

get_value(item= HSDAVFTDNYTRLRKQLAAKKYLNDIKNGGT [Peptide R3P24] , readout=pEC50) returns 7.35

get_value(item= HSDAVFTDNYTRLRKQMAAKKYLNSIKNPR [Peptide R3P145] , readout=pEC50) returns 7.30
